Assay: HPDE-C7 pancreatic duct cell viability loss – fluorescence, HTS (AID 430);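 note: cells exposed to compound for 48 hours before viability readout; 0% = vehicle and 100% = reference cytotoxic drug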
Settings: HPDE-C7 pancreatic duct cells viability, at 10 µM, active compounds read high
The campaign covered roughly 63,000 compounds. About 1,100 (1.7%) were called active. Only a selection was taken, and actives are over-represented in it overall. Potency and affinity values are given separately.
Examples of compounds with documented cytotoxicity follow.
The response must be a number in % with no trailing unit.

Example compounds with recorded cytotoxicity:
{"compound": "COc1ccc(C2NCc3ccc4c(c3-n3cccc32)OCO4)cc1O (stereo unspecified)", "cytotoxicity / %": 63.9}
{"compound": "CCCCCCn1c(=O)c(C(=O)Nc2c(C)n(C)n(-c3ccccc3)c2=O)c(O)c2ccccc21", "cytotoxicity / %": 51.8}
{"compound": "CC1(C)C(C(=O)NCc2ccco2)C1(C)C", "cytotoxicity / %": -21.5}
{"compound": "O=C(Nc1cccnc1)c1c(O)c2c(n(Cc3ccccc3)c1=O)CCCC2", "cytotoxicity / %": 1}
{"compound": "CC(CCc1ccccc1)NC(C)C(O)c1ccc(O)cc1 (stereo unspecified)", "cytotoxicity / %": 8.9}
{"compound": "COc1ccc(C2SCC(=O)Nc3c2c(=O)[nH]n3C2CCCCCC2)cc1 (stereo unspecified)", "cytotoxicity / %": 90.9}
{"compound": "CCCCN1C(=O)NC(=O)C2(Cc3c(nc4c(C)cccn4c3=O)N3CCc4ccccc4C32)C1=O (stereo unspecified)", "cytotoxicity / %": 13.9}
{"compound": "CCCCCCn1c(=O)c(C(=O)Nc2ccncc2)c(O)c2ccccc21", "cytotoxicity / %": 37.2}

Q: Tell us which cytotoxicity value is on record for O=C1CN=C(c2ccccc2)c2oc3ccc(Br)cc3c2N1
Result: -10.4

Q: Return reported cytotoxicity. Input compound: CCCCn1c(=O)c(C(=O)Nc2cnccn2)c(O)c2ccccc21
Result: 60.1

###

Test: HPDE-C7 pancreatic duct cell viability loss – fluorescence, HTS (AID 430);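 note: cells exposed to compound for 48 hours before viability readout; 0% = vehicle and 100% = reference cytotoxic drug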
Conditions: HPDE-C7 pancreatic duct cells viability, at 10 µM
Out of some 63,000 compounds screened, about 1,100 (1.7%) were called active. No stated cut-off is given here; in the data, active means cytotoxicity above about 50%; inactive means the rest. This excerpt belongs to a sample that is enriched for actives. Measured potencies and affinities stand elsewhere.
// one of active, inactive, no free text

{"compound": "CC(=O)C1=C(C)OC(N)=C(C(=O)OC(C)C)C12C(=O)Nc1ccccc12 (stereo unspecified)", "discrete.label": "inactive"}
{"compound": "Nc1c(C(=O)NCc2ccco2)c2nc3ccccc3nc2n1Cc1ccc(F)cc1", "discrete.label": "active"}
{"compound": "Cc1cccc(OC(=O)N2CCOCC2)c1", "discrete.label": "inactive"}

Q: What classification did O=c1[nH]c(=O)n(C2CCCCCC2)c(O)c1C=NCCCN1CCOCC1 end up with in this test?
Result: inactive

Q: What did this assay record as the result for CCCCCCn1c(O)c(C=Nc2c(C)n(C)n(-c3ccccc3)c2=O)c(=O)[nH]c1=O ?
Result: inactive

Q: Which outcome was assigned to O=C(Cc1ccccc1)OCCN1CCCCC1 in this test?
Result: inactive

###

Test: HPDE-C7 pancreatic duct cell viability loss – fluorescence, HTS (AID 430);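 note: cells exposed to compound for 48 hours before viability readout; 0% = vehicle and 100% = reference cytotoxic drug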
Conditions: HPDE-C7 pancreatic duct cells viability, at 10 µM
The campaign covered roughly 63,000 compounds. About 1,100 (1.7%) were called active. No stated cut-off is given here; in the data, active means cytotoxicity above about 50%; inactive means the rest. The list comes from a sample in which actives are over-represented; it also holds close analogues and randomly drawn compounds. Potency and affinity values are given separately.
Give one outcome, nothing more. List: active, inactive

Past entries and their recorded results:
{"compound": "CCCCCn1c(=O)c(C(=O)Nc2ccncc2)c(O)c2ccccc21", "discrete.label": "active"}
{"compound": "CC12CCCCC1N(O)CN2O (stereo not given)", "discrete.label": "inactive"}

Q: Hi, sorry to bother you, what did the test record for CCn1nc(-c2ccccc2)nc2c(=O)n(C)c(=O)nc1-2 ?
Result: active

Q: How was COc1cc(OC)cc(-n2nc(C(=O)N3CCC4(CC3)OCCO4)c3ccccc3c2=O)c1 classified in this test?
Result: inactive

Q: Called result for Cc1nc2ccccc2c(=O)n1-c1cccc(O)c1
Result: inactive

Q: Record request — test call for CC(=NCCCN1CCOCC1)c1c(O)[nH]c(=O)[nH]c1=O
Result: inactive

Q: Please let me know the test result on file for COc1ccc(CC2c3cc(OC)c(OC)cc3CCN2C)cc1OC (stereo not given) .
Result: inactive

Q: // return assay outcome for Nc1c(C(=O)NCCN2CCOCC2)c2nc3ccccc3nc2n1Cc1ccco1
Result: inactive

Q: How was O=C(Nc1ccncc1)c1c(O)c2ccccc2n(Cc2ccccc2)c1=O classified in this test?
Result: inactive

Q: Returns: the outcome recorded for CCC(=NCc1cccnc1)c1c(O)n(C2CCCCC2)c(=O)[nH]c1=O in this assay.
Result: inactive
